# experimental target: Leucine-rich repeat serine/threonine-protein kinase 2 (Homo sapiens, UniProt Q5S007, G2019S)
# Sequence (Q5S007 whole entry G2019S, the tested form may be a part): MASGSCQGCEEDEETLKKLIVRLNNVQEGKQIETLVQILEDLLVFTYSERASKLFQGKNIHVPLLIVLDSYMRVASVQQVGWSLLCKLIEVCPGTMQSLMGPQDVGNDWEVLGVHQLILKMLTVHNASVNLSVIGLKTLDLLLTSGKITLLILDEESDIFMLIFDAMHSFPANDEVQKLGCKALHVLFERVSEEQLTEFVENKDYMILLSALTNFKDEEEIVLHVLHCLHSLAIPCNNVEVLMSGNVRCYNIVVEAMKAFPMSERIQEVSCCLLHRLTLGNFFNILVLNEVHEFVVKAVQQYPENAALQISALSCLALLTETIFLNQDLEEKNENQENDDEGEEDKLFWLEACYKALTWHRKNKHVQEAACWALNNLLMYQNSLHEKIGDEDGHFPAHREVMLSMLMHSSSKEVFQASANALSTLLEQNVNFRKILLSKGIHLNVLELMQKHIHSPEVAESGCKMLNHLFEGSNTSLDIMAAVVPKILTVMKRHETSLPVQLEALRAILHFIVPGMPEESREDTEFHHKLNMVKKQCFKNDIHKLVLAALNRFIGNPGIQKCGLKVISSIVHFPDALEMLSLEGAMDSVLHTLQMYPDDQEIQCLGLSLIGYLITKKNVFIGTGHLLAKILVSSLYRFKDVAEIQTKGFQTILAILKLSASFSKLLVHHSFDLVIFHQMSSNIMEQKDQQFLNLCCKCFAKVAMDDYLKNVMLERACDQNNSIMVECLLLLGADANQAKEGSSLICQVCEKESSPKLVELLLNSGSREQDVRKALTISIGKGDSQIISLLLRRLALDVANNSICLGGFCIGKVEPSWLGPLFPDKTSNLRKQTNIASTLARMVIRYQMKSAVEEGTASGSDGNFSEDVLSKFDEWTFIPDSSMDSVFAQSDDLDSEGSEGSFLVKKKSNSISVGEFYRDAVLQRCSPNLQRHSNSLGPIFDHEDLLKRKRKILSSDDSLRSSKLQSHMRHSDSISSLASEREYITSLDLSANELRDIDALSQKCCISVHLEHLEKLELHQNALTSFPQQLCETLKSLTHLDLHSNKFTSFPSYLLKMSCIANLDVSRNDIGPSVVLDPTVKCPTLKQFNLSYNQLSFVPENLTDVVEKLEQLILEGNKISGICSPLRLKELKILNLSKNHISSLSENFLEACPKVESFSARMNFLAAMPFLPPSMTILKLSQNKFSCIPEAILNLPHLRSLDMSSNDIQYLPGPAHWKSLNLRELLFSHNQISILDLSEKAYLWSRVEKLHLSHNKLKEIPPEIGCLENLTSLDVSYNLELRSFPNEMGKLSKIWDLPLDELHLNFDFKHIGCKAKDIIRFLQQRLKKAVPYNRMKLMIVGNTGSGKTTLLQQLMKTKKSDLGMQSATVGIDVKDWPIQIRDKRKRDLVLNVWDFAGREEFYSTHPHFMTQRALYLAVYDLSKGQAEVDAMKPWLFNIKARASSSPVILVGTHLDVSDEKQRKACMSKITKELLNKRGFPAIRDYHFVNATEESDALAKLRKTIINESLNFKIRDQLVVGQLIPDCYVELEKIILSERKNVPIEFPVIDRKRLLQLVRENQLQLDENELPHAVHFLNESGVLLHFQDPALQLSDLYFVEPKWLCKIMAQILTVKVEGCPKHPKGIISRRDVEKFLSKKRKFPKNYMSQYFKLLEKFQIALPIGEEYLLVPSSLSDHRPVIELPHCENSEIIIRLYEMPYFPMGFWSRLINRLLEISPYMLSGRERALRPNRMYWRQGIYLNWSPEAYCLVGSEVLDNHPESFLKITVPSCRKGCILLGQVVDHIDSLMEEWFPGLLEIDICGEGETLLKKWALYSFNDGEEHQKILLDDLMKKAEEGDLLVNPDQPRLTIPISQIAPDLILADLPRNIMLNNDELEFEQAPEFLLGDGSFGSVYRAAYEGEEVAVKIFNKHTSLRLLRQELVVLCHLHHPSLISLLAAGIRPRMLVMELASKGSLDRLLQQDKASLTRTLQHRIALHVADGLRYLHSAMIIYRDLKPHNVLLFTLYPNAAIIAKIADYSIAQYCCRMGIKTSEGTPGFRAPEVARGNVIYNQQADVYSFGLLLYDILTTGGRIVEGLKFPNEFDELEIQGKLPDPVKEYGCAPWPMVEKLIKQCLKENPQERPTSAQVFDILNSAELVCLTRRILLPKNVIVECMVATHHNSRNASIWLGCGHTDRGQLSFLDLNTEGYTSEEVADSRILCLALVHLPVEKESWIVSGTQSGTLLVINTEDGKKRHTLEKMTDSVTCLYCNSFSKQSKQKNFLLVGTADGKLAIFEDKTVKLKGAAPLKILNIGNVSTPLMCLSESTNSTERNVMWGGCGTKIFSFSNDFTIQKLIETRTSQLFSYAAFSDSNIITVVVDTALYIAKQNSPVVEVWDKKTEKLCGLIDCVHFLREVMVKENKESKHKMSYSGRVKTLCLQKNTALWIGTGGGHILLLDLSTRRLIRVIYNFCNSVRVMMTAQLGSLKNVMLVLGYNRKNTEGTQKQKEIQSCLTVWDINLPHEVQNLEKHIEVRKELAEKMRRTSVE
# protocol description: Inhibition of N-terminal GST-fused human LRRK2 G2019S mutant using fluorescein-labeled LRRKtide as substrate preincubated for 15 mins followed by substrate addition and measured after 1 hr by TR-FRET assay
pIC50: −log10 of the molar value.
Hi, to clarify the labels: 1 covers pIC50 from 8 upward, -1 covers anything below 8.

Example results:
INSERT INTO assay_data (structure_smiles, qualitative_label) VALUES
  ('CC1=C(C(=O)Nc2ccc3[nH]cc(C)c3c2)Cn2nnnc2N1C', -1),
  ('CC1=C(C(=O)Nc2ccc3c(c2)CC(=O)N3)Cn2nnnc2N1C', -1),
  ('CCCC(=O)Nc1n[nH]c2ccc(NC(=O)C3=C(C)N(C)c4nnnn4C3)cc12', -1),
  ('CC1=C(C(=O)Nc2ccc3[nH]nc(-c4ccncc4)c3c2)Cn2nnnc2N1C', 1),
  ('CC(=O)N1C(C)=C(C(=O)Nc2ccc3[nH]ncc3c2)Cn2nnnc21', -1);

Data request: Does the reported pIC50 for `CC1=C(C(=O)Nc2ccc3[nH]nc(-c4ccnc(N5CCOCC5)c4)c3c2)[C@H](C)n2nnnc2N1C` fall at or above the 8 mark?
Data returned: 1

Data request: For this compound, is measured pIC50 8 or higher? `CC1=C(C(=O)Nc2ccc3c(c2)[nH]c(=O)n3C)[C@@H](C)n2nnnc2N1C`
Data returned: -1

---

# experimental target: Leucine-rich repeat serine/threonine-protein kinase 2 (Homo sapiens, UniProt Q5S007, G2019S)
# protocol description: Inhibition of human LRRK2 G2019S mutant expressed in HEK293 cells assessed as reduction in pSer935 phosphorylation incubated for 2 hrs by HTRF analysis
# Assay type: cell-based
Threshold check on IC50: strictly below 10 nM is criterion met; on or above 10 nM is criterion not met.

Answered examples (5):
INSERT INTO measurements (structure_smiles, qualitative_label) VALUES
  ('CC1=C(C(=O)Nc2ccc3[nH]nc(-c4ccnc(N5CCOCC5)c4)c3c2)[C@@H](C)n2nnnc2N1C', 'criterion met'),
  ('CC1=C(C(=O)Nc2ccc3[nH]nc(-c4ccccc4)c3c2)C(C)(C)n2nnnc2N1C', 'criterion met'),
  ('CC1=C(C(=O)Nc2ccc3[nH]nc(C)c3c2)[C@@H](C)n2nnnc2N1C', 'criterion not met'),
  ('CC1=C(C(=O)Nc2ccc3[nH]nc(-c4nc5ccccc5[nH]4)c3c2)Cn2nnnc2N1C', 'criterion not met'),
  ('CC1=C(C(=O)Nc2ccc3[nH]nc(-c4ccncc4)c3c2)[C@@H](C)n2nnnc2N1C', 'criterion not met');

Data request: Find out if reported IC50 for `CC1=C(C(=O)Nc2ccc3[nH]ncc3c2)[C@@H](C)n2nnnc2N1C` is less than 10 nM
Data returned: criterion not met

Data request: A record lists `CC1=C(C(=O)Nc2ccc3[nH]nc(-c4ccnc(N5CCOCC5)c4)c3c2)Cn2nnnc2N1C` . Is its IC50 below 10 nM?
Data returned: criterion met

Data request: Problem: For the compound `CC1=C(C(=O)Nc2ccc3[nH]nc(-c4ccnc(N5CCOCC5)c4)c3c2)C(C)(C)n2nnnc2N1C` , is IC50 under 10 nM?
Data returned: criterion met

---

Items are presented alongside their recorded pIC50.
# experimental target: Leucine-rich repeat serine/threonine-protein kinase 2 (Homo sapiens, UniProt Q5S007, G2019S)
# protocol description: Inhibition of human LRRK2 G2019S mutant expressed in HEK293 cells assessed as reduction in pS1292 phosphorylation incubated for 2 hrs by MSD analysis
# Assay type: cell-based
In textbook form, pIC50 equals minus log to base ten of the concentration in mol/L.

Illustrative cases are given below, each with its answer.
INSERT INTO measurements (structure_smiles, test_readout, result) VALUES
  ('CC1=C(C(=O)Nc2ccc3[nH]nc(-c4ccccc4)c3c2)C(C)(C)n2nnnc2N1C', 'pIC50', 8.77),
  ('CC1=C(C(=O)Nc2ccc3[nH]nc(-c4ccnc(N5CCOCC5)c4)c3c2)[C@@H](C)n2nnnc2N1C', 'pIC50', 8.92),
  ('CC1=C(C(=O)Nc2ccc3[nH]ncc3c2)[C@@H](C)n2nnnc2N1C', 'pIC50', 6.98),
  ('CC1=C(C(=O)Nc2ccc3[nH]nc(-c4nc5ccccc5[nH]4)c3c2)Cn2nnnc2N1C', 'pIC50', 7.68),
  ('CC1=C(C(=O)Nc2ccc3[nH]nc(-c4ccnc(N5CCOCC5)c4)c3c2)Cn2nnnc2N1C', 'pIC50', 8.04);

Data request: I have this compound here, `CC1=C(C(=O)Nc2ccc3[nH]nc(C)c3c2)[C@@H](C)n2nnnc2N1C` , and I need its recorded pIC50.
Data returned: 7.72

Data request: Given the entry `CC1=C(C(=O)Nc2ccc3[nH]nc(-c4ccnc(N5CCOCC5)c4)c3c2)C(C)(C)n2nnnc2N1C` , report its measured pIC50.
Data returned: 9.00

Data request: Dear colleague, I am looking for the recorded pIC50 of the following compound: `CC1=C(C(=O)Nc2ccc3[nH]nc(-c4ccncc4)c3c2)[C@@H](C)n2nnnc2N1C`
Data returned: 7.92
